system_under_test: IRAK4 (Homo sapiens, UniProt Q9NWZ3)
Construct: His (N); TEV cleavage site (N)
Sequence (Q9NWZ3 whole entry): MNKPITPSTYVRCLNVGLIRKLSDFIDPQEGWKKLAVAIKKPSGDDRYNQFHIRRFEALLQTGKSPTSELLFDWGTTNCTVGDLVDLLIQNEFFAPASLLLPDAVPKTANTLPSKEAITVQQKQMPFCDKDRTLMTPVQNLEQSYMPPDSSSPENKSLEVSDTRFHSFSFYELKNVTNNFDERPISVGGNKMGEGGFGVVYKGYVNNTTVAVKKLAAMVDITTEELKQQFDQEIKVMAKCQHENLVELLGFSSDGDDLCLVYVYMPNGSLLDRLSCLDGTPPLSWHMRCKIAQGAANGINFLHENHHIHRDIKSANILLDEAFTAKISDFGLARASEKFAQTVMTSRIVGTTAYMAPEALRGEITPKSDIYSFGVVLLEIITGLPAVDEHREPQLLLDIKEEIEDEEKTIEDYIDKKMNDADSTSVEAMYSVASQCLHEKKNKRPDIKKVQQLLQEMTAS
experiment_description: IRAK4 Enzymatic Assay
run_parameters: His-TEV-IRAK4 20 ng/well, ATP 2 μM, STK1-biotin peptide 300 nM, 3 hours at 30° C., FlashPlate radioactivity
metric: IC50

Past entries and their recorded results:
Cn1cc(-c2cccc(-c3ncc(-c4cnn([C@H]5CCCNC5)c4)cn3)c2)cn1
< 0.1 µM
Cn1cc(-c2cccc(-c3ncc(-c4cnn(C5CCCOC5)c4)cn3)c2)cn1 (stereo not shown)
0.1 to 1 µM
CC(=O)N1CCC(n2cc(-c3cnc(-c4cccc(-c5cnn(C)c5)c4)nc3)cn2)C(F)(F)C1 (stereo not shown)
< 0.1 µM

If you can, please state the reported IC50 value of Cn1cc(-c2cccc(-c3ncc(-c4cnn(C5CCOC5)c4)cn3)c2)cn1 (stereo not shown) .
0.1 to 1 µM

###

# maps each entry to its IC50
system_under_test: IRAK4 (Homo sapiens, UniProt Q9NWZ3)
Construct: His (N); TEV cleavage site (N)
experiment_description: IRAK4 Enzymatic Assay
Type: biochemical
run_parameters: His-TEV-IRAK4 20 ng/well, ATP 2 μM, STK1-biotin peptide 300 nM, 3 hours at 30° C., FlashPlate radioactivity
Structures can show the parent of a compound that is named as a salt.

Past entries and their recorded results:
CN1CCN(C(=O)Cn2cc(-c3cnc(-c4cccc(-c5cnn(C)c5)c4)nc3)cn2)CC1 [Example 51, hydrochloride]
100 to 1000 nM
CN1[C@@H]2CCC[C@H]1C[C@H](n1cc(-c3cnc(-c4cccc(-c5cnn(C)c5)c4)nc3)cn1)C2
100 to 1000 nM
Cn1cc(-c2cccc(-c3ncc(-c4cnn(CCc5ccncc5)c4)cn3)c2)cn1
< 100 nM
Cn1cc(-c2cccc(-c3ncc(-c4cnn([C@H]5CC[C@]6(CC5)CNC(=O)C6)c4)cn3)c2)cn1
< 100 nM
CN(C)C(=O)[C@H]1CC[C@H](n2cc(-c3cnc(-c4cccc(-c5ccnnc5)c4)nc3)cn2)CC1
100 to 1000 nM
Cn1cc(-c2cccc(-c3ncc(-c4cnn(C5CCN(C(=O)CO)CC5)c4)cn3)c2)cn1
100 to 1000 nM

Then this compound:
If you can, please state the reported IC50 value of "CO[C@H]1CC[C@H](n2cc(-c3cnc(-c4cccc(-c5cnn(C)c5)c4)nc3)cn2)CC1" .
< 100 nM

###

system_under_test: IRAK4 (Homo sapiens)
Construct: His (N); TEV cleavage site (N)
experiment_description: IRAK4 Enzymatic Assay
run_parameters: His-TEV-IRAK4 20 ng/well, ATP 2 μM, STK1-biotin peptide 300 nM, 3 hours at 30° C., FlashPlate radioactivity
pIC50: −log10 of the molar value.
metric: pIC50

Past entries and their recorded results:
CO[C@H]1CN(C(=O)[C@H]2CC[C@H](n3cc(-c4cnc(-c5cccc(-c6cnn(C)c6)c5)nc4)cn3)CC2)C[C@@H]1O (relative stereo)
> 7.00
Cn1cc(-c2cccc(-c3ncc(-c4cnn([C@H]5CC[C@H](OCCO)CC5)c4)cn3)c2)cn1
> 7.00

If you can, please state the reported pIC50 value of "CO[C@@H]1CCN(C(=O)[C@H]2CC[C@H](n3cc(-c4cnc(-c5cccc(-c6cnn(C)c6)c5)nc4)cn3)CC2)C1" .
> 7.00
